Measured values drawn from ChEMBL document CHEMBL4823272 for this set.

assay: Drug concentration in CD-1 mouse plasma at 5 mg/kg, po measured after 2.5 hrs by LC-MS/MS analysis; format: ADME, organism-based
measured_parameter: concentration at 2.5 h (µg/mL)

A. CN(Cc1ccccc1)S(=O)(=O)c1cc(C(=O)O)c(NCc2ccco2)cc1Cl
B. NS(=O)(=O)c1cc(C(=O)O)c(NCc2ccco2)cc1Cl [FUROSEMIDE]
C. CNS(=O)(=O)c1cc(C(=O)N(C)C)c(NCc2ccco2)cc1Cl
D. CNS(=O)(=O)c1cc(C(N)=O)c(NCc2ccco2)cc1Cl
Order the entries by their reported concentration at 2.5 h, beginning at the minimum. Reply with the labels, ordered as the question asks.
D, C, A, B
(D: 0.0293 µg/mL, C: 0.0832 µg/mL, A: 0.873 µg/mL, B: 1.63 µg/mL)
